Biological target: Max* (b-HLH-LZ of WT Max) (UniProt P61244 22-103)
Sequence (P61244 22-103): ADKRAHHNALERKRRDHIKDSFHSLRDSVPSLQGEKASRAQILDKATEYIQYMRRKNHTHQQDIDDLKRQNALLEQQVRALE
Experiment: fluorescence anisotropy; 37 C; apparent 1/KBinding of dimer; 1/KDimer 55 ± 7 nM; FA: 15 nM dsDNA, 50 mM Tris, 50 mM KCl, pH 7.5, 37 C; EMSA: 250 nM DNA, 20 mM Tris-HCl, 75 mM KCl, 2.5 mM TCEP, 25 ug/mL BSA, 5% glycerol, pH 8.0, room temp; CD: 25 mM KH2PO4, 25 mM Na2HPO4, 50 mM KCl, 1 mM TCEP, pH 6.8
Settings: protein: recombinant; tags: C-terminal GSGC stated for the deltaMax* construct only; not restated for Max*; chain copies: 2; label: fluorescein; blunt, self-complementary palindrome

| binder | Kd, nM |
| --- | --- |
| Non-specific DNA, fluorescein-labeled (dsDNA, internal fluorescein-dT (iFluorT) at position 4) DNA 1: GAGTAGGGATCCCTACTC DNA 2: GAGTAGGGATCCCTACTC | 23 |

The reported numbers originate from paper PMC5370111.
